- target.desc: Chitotriosidase-1 (Mus musculus)
- protocol: Inhibition of mouse recombinant full length C-terminal His-tagged chitotriosidase expressed in CHO-K1 cells using 4-methylumbelliferyl-beta-D-N,N',N\"\"-triacetylchitotrioside as substrate after 60 mins by fluorescence assay
recorded.endpoint: log10(IC50) (log10 of the value in µM)

smiles.data	log10(IC50)
Cc1ccc(CCN(C)C2CCN(c3nc(N)n[nH]3)CC2)cc1	1.10
CN(CCc1ccc(Br)cc1)C1CCN(c2nc(N)n[nH]2)CC1	0.43
CN(CCc1ccc(Cl)cc1Cl)C1CCN(c2nc(N)n[nH]2)CC1	1.68
Nc1n[nH]c(N2CCC(N(CCc3ccc(Cl)cc3)Cc3cccc4ccccc34)CC2)n1	-0.24
CCN(CCc1ccc(Cl)cc1)C1CCN(c2nc(N)n[nH]2)CC1	0.85
Nc1n[nH]c(N2CCC(N(CCc3ccc(Cl)cc3)CC3CCCCC3)CC2)n1	0.31
CC(C)CN(CCc1ccc(Br)cc1)C1CCN(c2nc(N)n[nH]2)CC1	0.10
CC(C)N(CCc1ccc(Cl)cc1)C1CCN(c2nc(N)n[nH]2)CC1	1.19
Nc1n[nH]c(N2CCC(N(CCc3ccc(Cl)cc3)Cc3ccccc3Cl)CC2)n1	0.41
CCc1ccc(CCN(C)C2CCN(c3nc(N)n[nH]3)CC2)cc1	0.85
CN(CCc1ccc(C2CC2)cc1)C1CCN(c2nc(N)n[nH]2)CC1	0.49
CN(CCc1ccc(Cl)cc1)C1CCN(c2nc(N)n[nH]2)CC1	0.87
CC(C)c1ccc(CCN(C)C2CCN(c3nc(N)n[nH]3)CC2)cc1	0.84

---

Here the recorded Cmax is given for each entry.
- protocol: Cmax in BALB/c mouse at 10 mg/kg, po by LC-MS/MS analysis
- Format: ADME, organism-based
- Design: dose 10 mg/kg, route oral
- condition.set: in vivo

smiles.data	readout.unit	Cmax
CN(CCc1ccc(Br)cc1)C1CCN(c2nc(N)n[nH]2)CC1	ng/mL	672
Nc1n[nH]c(N2CCC(N(CCc3ccc(Cl)cc3)Cc3ccccc3Cl)CC2)n1	ng/mL	618
CC(C)CN(CCc1ccc(Br)cc1)C1CCN(c2nc(N)n[nH]2)CC1	ng/mL	6040
CC(C)CN(CCc1ccc(Cl)cc1)C1CCN(c2nc(N)n[nH]2)CC1	ng/mL	1860
Nc1n[nH]c(N2CCC(NS(=O)(=O)Cc3ccc(Br)cc3)CC2)n1	ng/mL	3250

---

- target.desc: Chitotriosidase-1 (Mus musculus)
- protocol: Inhibition of mouse recombinant full length C-terminal His-tagged chitotriosidase expressed in CHO-K1 cells using 4-methylumbelliferyl-beta-D-N,N',N\"\"-triacetylchitotrioside as substrate after 60 mins by Lineweaver-Burk plot analysis
recorded.endpoint: Ki (µM)

smiles.data	target.desc	recorded.endpoint	measurement
CC(C)CN(CCc1ccc(Cl)cc1)C1CCN(c2nc(N)n[nH]2)CC1	Chitotriosidase-1 (Mus musculus)	Ki	3.4

---

- target.desc: Chitotriosidase-1 (Mus musculus, UniProt Q9D7Q1)
- Sequence (Q9D7Q1 whole entry): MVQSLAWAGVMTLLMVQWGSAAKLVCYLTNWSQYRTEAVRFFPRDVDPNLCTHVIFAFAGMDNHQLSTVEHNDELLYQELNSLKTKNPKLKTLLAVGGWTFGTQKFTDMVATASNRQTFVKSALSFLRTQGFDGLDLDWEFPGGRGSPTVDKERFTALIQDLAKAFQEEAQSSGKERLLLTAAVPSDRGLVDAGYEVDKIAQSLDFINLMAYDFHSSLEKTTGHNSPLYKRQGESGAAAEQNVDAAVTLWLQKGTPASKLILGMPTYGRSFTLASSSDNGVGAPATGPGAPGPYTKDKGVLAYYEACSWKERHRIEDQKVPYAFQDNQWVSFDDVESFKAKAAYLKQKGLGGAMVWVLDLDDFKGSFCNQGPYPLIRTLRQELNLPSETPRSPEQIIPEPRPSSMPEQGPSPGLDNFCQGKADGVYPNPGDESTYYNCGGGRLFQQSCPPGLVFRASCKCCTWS
- protocol: Inhibition of mouse recombinant full length C-terminal His-tagged chitotriosidase expressed in CHO-K1 cells using 4-methylumbelliferyl-beta-D-N,N',N\"\"-triacetylchitotrioside as substrate after 60 mins by fluorescence assay
pIC50: −log10 of the molar value.

smiles.data	target.desc	value.modifier	pIC50
Nc1n[nH]c(N2CCC(N(CCc3ccc(Cl)cc3)Cc3ccccc3)CC2)n1	Chitotriosidase-1 (Mus musculus, UniProt Q9D7Q1)	=	5.82
Nc1n[nH]c(N2CCN(CCOc3ccc(Br)cc3)CC2)n1	Chitotriosidase-1 (Mus musculus, UniProt Q9D7Q1)	=	4.70
CC(C)CN(CCc1ccc(Cl)cc1)C1CCN(c2nc(N)n[nH]2)CC1	Chitotriosidase-1 (Mus musculus, UniProt Q9D7Q1)	=	5.53
CCN(CCc1ccc(Br)cc1)C1CCN(c2nc(N)n[nH]2)CC1	Chitotriosidase-1 (Mus musculus, UniProt Q9D7Q1)	=	5.57
Nc1n[nH]c(N2CCC(NC(=O)Cc3ccc(Br)cc3)CC2)n1	Chitotriosidase-1 (Mus musculus, UniProt Q9D7Q1)	<	4.00

---

- target.desc: Acidic mammalian chitinase (Mus musculus)
- Sequence (Q91XA9 whole entry): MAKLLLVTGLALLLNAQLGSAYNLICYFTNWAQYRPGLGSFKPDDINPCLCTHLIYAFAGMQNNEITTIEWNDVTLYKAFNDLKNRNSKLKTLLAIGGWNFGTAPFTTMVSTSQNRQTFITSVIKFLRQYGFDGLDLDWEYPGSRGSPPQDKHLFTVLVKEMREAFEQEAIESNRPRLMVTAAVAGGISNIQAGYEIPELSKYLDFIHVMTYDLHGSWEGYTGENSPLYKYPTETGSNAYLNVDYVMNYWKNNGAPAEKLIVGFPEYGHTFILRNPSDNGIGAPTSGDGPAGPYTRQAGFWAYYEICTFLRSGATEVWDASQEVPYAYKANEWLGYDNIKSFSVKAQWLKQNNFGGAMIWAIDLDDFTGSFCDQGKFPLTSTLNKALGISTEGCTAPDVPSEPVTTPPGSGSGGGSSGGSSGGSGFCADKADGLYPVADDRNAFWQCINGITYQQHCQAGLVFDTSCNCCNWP
- protocol: Inhibition of mouse recombinant full length C-terminal His-tagged acidic mammalian chitinase expressed in CHO-K1 cells using 4-methylumbelliferyl-beta-D-N,N'-diacetylchitobioside hydrate as substrate after 60 mins by fluorescence assay
pIC50: −log10 of the molar value.
This section presents compounds with their documented pIC50 values.

smiles.data	pIC50
Nc1n[nH]c(N2CCN(CCOc3ccc(Br)cc3)CC2)n1	5.68
CC(C)CN(CCc1ccc(Cl)cc1)C1CCN(c2nc(N)n[nH]2)CC1	7.73
Nc1n[nH]c(N2CCC(N(CCc3ccc(Cl)cc3)Cc3ccccc3)CC2)n1	7.95
Nc1n[nH]c(N2CCC(N(CCc3ccc(Cl)cc3)Cc3ccccc3Cl)CC2)n1	8.01

---

- target.desc: Chitotriosidase-1 (Homo sapiens, UniProt Q13231)
- Sequence (Q13231 whole entry): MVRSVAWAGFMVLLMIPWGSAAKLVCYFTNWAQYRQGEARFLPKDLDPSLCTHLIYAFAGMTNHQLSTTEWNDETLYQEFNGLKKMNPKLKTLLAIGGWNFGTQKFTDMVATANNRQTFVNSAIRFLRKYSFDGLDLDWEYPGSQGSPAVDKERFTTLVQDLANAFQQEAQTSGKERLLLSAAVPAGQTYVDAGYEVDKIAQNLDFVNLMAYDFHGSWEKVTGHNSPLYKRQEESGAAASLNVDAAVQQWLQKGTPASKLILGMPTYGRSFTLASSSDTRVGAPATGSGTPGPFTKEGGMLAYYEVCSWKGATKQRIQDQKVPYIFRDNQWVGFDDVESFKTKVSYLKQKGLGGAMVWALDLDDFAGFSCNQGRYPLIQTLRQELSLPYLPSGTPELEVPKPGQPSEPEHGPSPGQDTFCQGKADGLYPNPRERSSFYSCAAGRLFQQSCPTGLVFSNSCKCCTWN
- protocol: Inhibition of human recombinant full length C-terminal His-tagged chitotriosidase expressed in CHO-K1 cells using 4-methylumbelliferyl-beta-D-N,N',N\"\"-triacetylchitotrioside as substrate after 60 mins by fluorescence assay
pIC50: −log10 of the molar value.

smiles.data	pIC50
Nc1n[nH]c(N2CCC(N(CCc3ccc(Cl)cc3)Cc3cccc4ccccc34)CC2)n1	7.44
Nc1n[nH]c(N2CCC(NC(=O)Nc3ccc(Br)cc3)CC2)n1	< 4.00
CN(C1CCN(c2nc(N)n[nH]2)CC1)S(=O)(=O)Cc1ccc(Br)cc1	< 4.00
CN(CCc1ccccc1)C1CCN(c2nc(N)n[nH]2)CC1	< 4.00

---

Catalogue of compounds with associated half-life
- protocol: Half life in BALB/c mouse at 3 mg/kg, iv by LC-MS/MS analysis
- Format: ADME, organism-based
- condition.set: in vivo
recorded.endpoint: half-life (h)

smiles.data	recorded.endpoint	readout.unit	measurement
CN(CCc1ccc(Br)cc1)C1CCN(c2nc(N)n[nH]2)CC1	half-life	h	4.4
CC(C)CN(CCc1ccc(Br)cc1)C1CCN(c2nc(N)n[nH]2)CC1	half-life	h	3.25
CC(C)CN(CCc1ccc(Cl)cc1)C1CCN(c2nc(N)n[nH]2)CC1	half-life	h	2.97
Nc1n[nH]c(N2CCC(NS(=O)(=O)Cc3ccc(Br)cc3)CC2)n1	half-life	h	11.1
Nc1n[nH]c(N2CCC(N(CCc3ccc(Cl)cc3)Cc3ccccc3Cl)CC2)n1	half-life	h	6.78

---

// remaining at 20 min lookup, one value per entry
- protocol: Stability in liver microsomes (unknown origin) assessed as compound remaining after 20 mins
- Format: ADME, microsome
- condition.set: read-out: Stability
recorded.endpoint: remaining at 20 min (%)

smiles.data	readout.unit	measurement
CC(C)CN(CCc1ccc(Br)cc1)C1CCN(c2nc(N)n[nH]2)CC1	%	78.3
Nc1n[nH]c(N2CCC(N(CCc3ccc(Cl)cc3)Cc3ccccc3Cl)CC2)n1	%	21
Nc1n[nH]c(N2CCC(NS(=O)(=O)Cc3ccc(Br)cc3)CC2)n1	%	100
CN(CCc1ccc(Br)cc1)C1CCN(c2nc(N)n[nH]2)CC1	%	97.5
CC(C)CN(CCc1ccc(Cl)cc1)C1CCN(c2nc(N)n[nH]2)CC1	%	76.9

---

- protocol: Volume of distribution at steady state in BALB/c mouse at 3 mg/kg, iv by LC-MS/MS analysis
- Format: ADME, organism-based
- condition.set: in vivo, read-out: Vdss
# Vd per record follows

smiles.data	Vd [L/kg]
CC(C)CN(CCc1ccc(Cl)cc1)C1CCN(c2nc(N)n[nH]2)CC1	2.33
Nc1n[nH]c(N2CCC(NS(=O)(=O)Cc3ccc(Br)cc3)CC2)n1	1.16
CC(C)CN(CCc1ccc(Br)cc1)C1CCN(c2nc(N)n[nH]2)CC1	1.66
CN(CCc1ccc(Br)cc1)C1CCN(c2nc(N)n[nH]2)CC1	12.8
Nc1n[nH]c(N2CCC(N(CCc3ccc(Cl)cc3)Cc3ccccc3Cl)CC2)n1	3.03

---

- protocol: AUC (0 to infinity) in BALB/c mouse at 10 mg/kg, po by LC-MS/MS analysis
- Format: ADME, organism-based
- Design: dose 10 mg/kg, route oral, time infinity
- condition.set: in vivo
Quick rule: AUC(0-inf) of at least 10000 ng·h/mL means criterion met, below that means criterion not met.

smiles.data	assigned.class
Nc1n[nH]c(N2CCC(N(CCc3ccc(Cl)cc3)Cc3ccccc3Cl)CC2)n1	criterion not met
CC(C)CN(CCc1ccc(Br)cc1)C1CCN(c2nc(N)n[nH]2)CC1	criterion met
CC(C)CN(CCc1ccc(Cl)cc1)C1CCN(c2nc(N)n[nH]2)CC1	criterion not met
CN(CCc1ccc(Br)cc1)C1CCN(c2nc(N)n[nH]2)CC1	criterion not met
Nc1n[nH]c(N2CCC(NS(=O)(=O)Cc3ccc(Br)cc3)CC2)n1	criterion not met

---

- protocol: Clearance in BALB/c mouse at 3 mg/kg, iv by LC-MS/MS analysis
- Format: ADME, organism-based
- condition.set: in vivo
Documented clearance across a set of compounds

smiles.data	readout.unit	clearance
CC(C)CN(CCc1ccc(Cl)cc1)C1CCN(c2nc(N)n[nH]2)CC1	mL/min/kg	9.06
CN(CCc1ccc(Br)cc1)C1CCN(c2nc(N)n[nH]2)CC1	mL/min/kg	52.6
Nc1n[nH]c(N2CCC(N(CCc3ccc(Cl)cc3)Cc3ccccc3Cl)CC2)n1	mL/min/kg	45
Nc1n[nH]c(N2CCC(NS(=O)(=O)Cc3ccc(Br)cc3)CC2)n1	mL/min/kg	11.5
CC(C)CN(CCc1ccc(Br)cc1)C1CCN(c2nc(N)n[nH]2)CC1	mL/min/kg	8.53
